Assay: Clearance in rat liver microsomes at 1 uM in presence of NADPH generating system measured for 10 to 90 mins by LC-MS/MS analysis
Type: ADME, Microsome
readout kind: CLH (µL/min/mg)
Your answer should be a plain number; it is taken to be in µL/min/mg.

{"input smiles": "Fc1ccc(N2CCN(CCCc3c[nH]c4ccc(F)cc34)CC2)c(-c2ccoc2)c1", "uom": "µL/min/mg", "result number": 134}

Field request: CLH | item: Fc1ccc2[nH]cc(CCCCN3CCN(c4nsc5ccccc45)CC3)c2c1
403

Field request: CLH | item: Fc1ccc(C2CCN(CCCc3c[nH]c4ccc(F)cc34)CC2)c(-c2ccccc2)c1
28.5

Field request: CLH | item: Fc1ccc(C2CCN(CCCc3c[nH]c4ccc(F)cc34)CC2)c(-c2ccsc2)c1
75.6

Field request: CLH | item: N#Cc1ccc2[nH]cc(CCCCN3CCN(c4ccc5oc(C(N)=O)cc5c4)CC3)c2c1
48.6

---

Form field: pIC50 (one value per entry).
Target: Sodium-dependent serotonin transporter (Rattus norvegicus, UniProt P31652)
Sequence (P31652 whole entry): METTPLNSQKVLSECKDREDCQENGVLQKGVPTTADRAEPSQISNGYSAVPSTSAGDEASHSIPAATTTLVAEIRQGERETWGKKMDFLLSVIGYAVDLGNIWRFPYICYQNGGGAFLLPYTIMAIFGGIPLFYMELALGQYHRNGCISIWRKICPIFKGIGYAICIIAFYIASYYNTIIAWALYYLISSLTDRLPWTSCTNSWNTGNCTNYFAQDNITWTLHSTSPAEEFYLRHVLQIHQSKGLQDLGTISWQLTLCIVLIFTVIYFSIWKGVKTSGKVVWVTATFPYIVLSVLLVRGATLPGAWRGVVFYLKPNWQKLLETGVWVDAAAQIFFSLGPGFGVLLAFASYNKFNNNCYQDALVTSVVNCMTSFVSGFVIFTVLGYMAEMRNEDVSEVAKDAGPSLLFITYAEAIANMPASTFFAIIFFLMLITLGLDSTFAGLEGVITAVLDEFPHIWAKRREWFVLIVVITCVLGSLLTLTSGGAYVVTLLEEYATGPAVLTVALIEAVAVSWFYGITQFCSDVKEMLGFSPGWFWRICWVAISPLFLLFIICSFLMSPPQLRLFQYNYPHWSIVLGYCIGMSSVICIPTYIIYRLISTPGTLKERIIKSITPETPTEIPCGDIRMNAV
Experiment: Inhibition of rat synaptosomes 5HT transporter assessed as reduction in [3H]serotonin reuptake incubated for 15 mins by scintillation counting method
Please report pIC50 as the negative decimal logarithm of the molar concentration, giving only the number.

Observe how each entry below is paired with its result.
{"input smiles": "Fc1ccc2[nH]cc(CCN3CCN(c4nsc5ccccc45)CC3)c2c1", "result number": 7.64}
{"input smiles": "Fc1ccc(C2CCN(CCCc3c[nH]c4ccc(F)cc34)CC2)c(-c2ccccc2)c1", "result number": 7.85}
{"input smiles": "Fc1ccc2[nH]cc(CCCN3CCN(c4nsc5ccccc45)CC3)c2c1", "result number": 8.96}
{"input smiles": "Fc1ccc(N2CCN(CCCc3c[nH]c4ccc(F)cc34)CC2)c(-c2cccs2)c1", "result number": 7.68}
{"input smiles": "Fc1ccc(N2CCN(CCCc3c[nH]c4ccc(F)cc34)CC2)c(-c2cn[nH]c2)c1", "result number": 8.89}

Field request: pIC50 | item: Fc1ccc2[nH]cc(CCCCN3CCN(c4nsc5ccccc45)CC3)c2c1
8.15

Field request: pIC50 | item: Cn1cc(-c2cc(F)ccc2N2CCN(CCCc3c[nH]c4ccc(F)cc34)CC2)cn1
8.57

Field request: pIC50 | item: Fc1ccc2c(C3CCN(CCCc4c[nH]c5ccc(F)cc45)CC3)noc2c1
9.04

---

Molecular target: 5-hydroxytryptamine receptor 1A (Homo sapiens, UniProt P08908)
Sequence (P08908 whole entry): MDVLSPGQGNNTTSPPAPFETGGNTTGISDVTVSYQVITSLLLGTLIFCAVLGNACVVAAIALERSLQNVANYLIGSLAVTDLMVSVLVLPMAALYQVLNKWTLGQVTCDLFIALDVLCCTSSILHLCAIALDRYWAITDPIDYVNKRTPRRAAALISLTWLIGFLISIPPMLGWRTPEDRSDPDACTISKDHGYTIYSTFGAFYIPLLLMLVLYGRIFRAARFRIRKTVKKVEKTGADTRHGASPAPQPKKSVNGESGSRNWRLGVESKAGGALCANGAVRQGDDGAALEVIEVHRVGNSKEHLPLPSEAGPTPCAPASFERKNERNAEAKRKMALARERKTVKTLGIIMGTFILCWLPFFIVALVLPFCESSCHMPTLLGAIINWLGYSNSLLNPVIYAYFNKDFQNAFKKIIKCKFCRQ
Assay: Agonist activity at human recombinant 5HT1A receptor (unknown origin) stably expressed in CHO-K1 incubated for 30 mins by [35S]GTPgammaS binding assay
readout kind: pEC50
Please report pEC50 as the negative decimal logarithm of the molar concentration, giving only the number.

Field request: pEC50 | item: Fc1ccc(C2CCN(CCCc3c[nH]c4ccc(F)cc34)CC2)c(-c2ccccc2)c1
5.93

---

Form field: half-life at 1 µM (one value per entry).
Experiment: Half life in human liver microsomes at 1 uM in presence of NADPH generating system measured for 10 to 90 mins by LC-MS/MS analysis
Format: ADME, Microsome
Your answer should be a plain number; it is taken to be in min.

Observe how each entry below is paired with its result.
{"input smiles": "COc1ccc2c(c1)[C@]13CCCC[C@@H]1[C@H](C2)N(C)CC3", "result number": 44.7}
{"input smiles": "N#Cc1ccc2[nH]cc(CCCCN3CCN(c4ccc5oc(C(N)=O)cc5c4)CC3)c2c1", "result number": 53.3}

Field request: half-life at 1 µM | item: Cc1ccc(Sc2ccccc2N2CCNCC2)c(C)c1
214

Field request: half-life at 1 µM | item: Fc1ccc(C2CCN(CCCc3c[nH]c4ccc(F)cc34)CC2)c(-c2ccccc2)c1
49.9

---

Form field: CLH (one value per entry).
Experiment: Clearance in human liver microsomes at 1 uM in presence of NADPH generating system measured for 10 to 90 mins by LC-MS/MS analysis
Assay type: ADME, Microsome
Your answer should be a plain number; it is taken to be in µL/min/mg.

{"input smiles": "Fc1ccc(C2CCN(CCCc3c[nH]c4ccc(F)cc34)CC2)c(-c2ccccc2)c1", "result number": 27.8}
{"input smiles": "Cc1ccc(Sc2ccccc2N2CCNCC2)c(C)c1", "result number": 6.47}
{"input smiles": "N#Cc1ccc2[nH]cc(CCCCN3CCN(c4ccc5oc(C(N)=O)cc5c4)CC3)c2c1", "result number": 26}

The record that follows has no CLH shown yet.
Field request: CLH | item: COc1ccc2c(c1)[C@]13CCCC[C@@H]1[C@H](C2)N(C)CC3
31

---

Target: 5-hydroxytryptamine receptor 7 (Homo sapiens)
Sequence (P34969 whole entry): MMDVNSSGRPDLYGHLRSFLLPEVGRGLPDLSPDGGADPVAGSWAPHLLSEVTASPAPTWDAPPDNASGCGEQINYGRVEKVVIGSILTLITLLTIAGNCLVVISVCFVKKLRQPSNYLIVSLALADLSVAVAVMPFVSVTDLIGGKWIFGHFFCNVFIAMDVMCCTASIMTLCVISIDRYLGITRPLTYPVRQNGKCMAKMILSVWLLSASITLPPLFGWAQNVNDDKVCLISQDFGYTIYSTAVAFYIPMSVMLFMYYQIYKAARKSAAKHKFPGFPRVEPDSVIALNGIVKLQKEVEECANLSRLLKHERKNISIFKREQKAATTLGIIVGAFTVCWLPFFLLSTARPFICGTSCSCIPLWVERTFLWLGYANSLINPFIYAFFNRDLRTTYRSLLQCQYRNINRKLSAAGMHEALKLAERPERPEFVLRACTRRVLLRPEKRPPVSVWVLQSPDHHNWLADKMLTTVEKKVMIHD
readout kind: pIC50
Please report pIC50 as the negative decimal logarithm of the molar concentration, giving only the number.

Lab note: need pIC50 with 5-hydroxytryptamine receptor 7 (Homo sapiens) for entry Fc1ccc(C2CCN(CCCc3c[nH]c4ccc(F)cc34)CC2)c(-c2ccccc2)c1 , please look it up.
6.19

---

Target: 5-hydroxytryptamine receptor 7 (Homo sapiens)
Assay: Displacement of [3H]-LSD from 5HT7 receptor (unknown origin) expressed in CHO cell membranes at 10 uM incubated for 120 mins by scintillation counting method relative to control
readout kind: inhibition (%)
Your answer should be a plain number; it is taken to be in %.

Field request: inhibition | item: Fc1ccc2[nH]cc(CCCCN3CCN(c4nsc5ccccc45)CC3)c2c1
98.5

Field request: inhibition | item: Fc1ccc(N2CCN(CCCc3c[nH]c4ccc(F)cc34)CC2)c(-c2cncnc2)c1
90.9

Field request: inhibition | item: Fc1ccc2c(C3CCN(CCCc4c[nH]c5ccc(F)cc45)CC3)noc2c1
99.8

Field request: inhibition | item: Fc1ccc(N2CCN(CCCc3c[nH]c4ccc(F)cc34)CC2)c(-c2cccnc2)c1
100

Field request: inhibition | item: Fc1ccc(N2CCN(CCCc3c[nH]c4ccc(F)cc34)CC2)c(-c2cc[nH]c2)c1
99.1

---

Biological target: Sodium-dependent serotonin transporter (Rattus norvegicus, UniProt P31652)
Assay: Inhibition of rat synaptosomes 5HT transporter assessed as reduction in [3H]serotonin reuptake incubated for 15 mins by scintillation counting method
Form field: IC50 (one value per entry).
Your answer should be a plain number; it is taken to be in nM.

{"input smiles": "Fc1ccc(N2CCN(CCCc3c[nH]c4ccc(F)cc34)CC2)c(-c2ccoc2)c1", "uom": "nM", "IC50": 3}
{"input smiles": "Fc1ccc(N2CCN(CCCc3c[nH]c4ccc(F)cc34)CC2)c(-c2ccsc2)c1", "uom": "nM", "IC50": 4}

The record that follows has no IC50 shown yet.
Field request: IC50 | item: Fc1ccc(C2CCN(CCCc3c[nH]c4ccc(F)cc34)CC2)c(-c2ccsc2)c1
14
